Let's look at some compounds and their measured KiμM.
# tested_target: Pc Aad1p (recombinant aryl-alcohol dehydrogenase, AAD1) (Phanerodontia chrysosporium, UniProt Q01752)
# Sequence (Q01752 1-385): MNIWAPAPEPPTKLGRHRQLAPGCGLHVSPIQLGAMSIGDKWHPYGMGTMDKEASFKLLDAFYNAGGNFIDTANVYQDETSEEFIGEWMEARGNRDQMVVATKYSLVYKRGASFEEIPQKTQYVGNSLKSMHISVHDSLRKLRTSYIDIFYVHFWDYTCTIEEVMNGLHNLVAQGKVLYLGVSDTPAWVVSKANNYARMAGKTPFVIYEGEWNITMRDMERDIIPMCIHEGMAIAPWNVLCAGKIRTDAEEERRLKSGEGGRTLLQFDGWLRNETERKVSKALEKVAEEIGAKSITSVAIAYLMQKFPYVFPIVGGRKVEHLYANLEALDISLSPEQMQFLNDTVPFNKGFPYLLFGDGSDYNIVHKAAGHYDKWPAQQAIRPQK
# measurement_notes: spectrophotometric NADPH oxidation at […] nm, fit to uncompetitive substrate inhibition equation
# Type: biochemical
# Design: full-length ORF (1155 bp) in pGS-21a; N-terminal His6-GST and C-terminal His6 tags kept; E. coli BL21 Star(DE3)
# condition_details: substrate inhibition constant (uncompetitive); 0.3 mM NADPH, 50 mM MES pH 6.1, 30°C
property: KiμM (µM)

COc1ccc(C=O)cc1O [3-Hydroxy-4-methoxybenzaldehyde] :: 2300
COc1ccc(C=O)cc1OC :: 3400
COc1cc(C=O)ccc1O [4-Hydroxy-3-methoxybenzaldehyde] :: 5100
O=Cc1ccccc1 :: 81000
O=C/C=C/c1ccccc1 [trans-Cinnamaldehyde] :: 3500
COc1cc(C=O)cc(OC)c1 :: 2100

Sourced from paper PMC3507735
